TESTED SYSTEM: DAP12 alone (Homo sapiens)
Construct: expressed in transfected cells
Sequence (O43914 22-113): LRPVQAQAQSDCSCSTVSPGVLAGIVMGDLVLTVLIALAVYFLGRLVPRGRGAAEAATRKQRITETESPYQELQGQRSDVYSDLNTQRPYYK
PROCEDURE TEXT: Liposome stimulation pSyk AlphaLISA, HEK293 expressing DAP12 alone
Format: cell-based
ASSAY CONDITIONS: liposomes 30% lipid/70% PC (KLA 10%/90%), fold change over HBSS
Give DAP12 alone (pSyk FOB) for every item shown.
Don't forget the unit after the value.

Below: 3 compounds and their reported DAP12 alone (pSyk FOB).
CCCCCCCCCCCCCCC[C@@H](O)[C@@H](N)COP(=O)(O)O [Sphinganine-1-phosphate (SalP), Sphinganine-1-phosphate]
1.34 FOB
CCCCCCCCCCCCCCC[C@@H](O)[C@@H](N)CO
1.26 FOB
CCCCCCCCCCCCC/C=C/[C@@H](O)[C@@H](N)COP(=O)(O)O [Sphingosine-1-phosphate (SolP), Sphingosine-1-phosphate]
1.64 FOB

Go through the items and report each one's DAP12 alone (pSyk FOB).
1. C[C@@H](CO)CCC[C@@H](C)[C@H]1CC[C@H]2[C@@H]3CC=C4C[C@@H](O)CC[C@]4(C)[C@H]3CC[C@]12C [27-hydroxycholesterol (27OHC), 27-hydroxycholesterol]
2. CC(C)[C@@H](O)CC[C@@H](C)[C@H]1CC[C@H]2[C@@H]3CC=C4C[C@@H](O)CC[C@]4(C)[C@H]3CC[C@]12C [24(S)hydroxycholesterol (24OHC), 24(S)hydroxycholesterol]
3. CCCCCCCCCCCCCC(=O)O[C@H](CCCCCCCCCCC)CC(=O)O[C@@H]1[C@@H](NC(=O)C[C@@H](CCCCCCCCCCC)OC(=O)CCCCCCCCCCC)[C@H](OC[C@H]2O[C@H](OP(=O)(O)O)[C@H](NC(=O)C[C@H](O)CCCCCCCCCCC)[C@@H](OC(=O)C[C@H](O)CCCCCCCCCCC)[C@@H]2O)O[C@H](CO[C@]2(C(=O)O)C[C@@H](O[C@]3(C(=O)O)C[C@@H](O)[C@@H](O)[C@@H]([C@H](O)CO)O3)[C@@H](O)[C@@H]([C@H](O)CO)O2)[C@H]1OP(=O)(O)O
4. CCCCCCCC/C=C\CCCCCCCC(=O)OC[C@H](COP(=O)([O-])OCC[N+](C)(C)C)OC(=O)CCCCCCC/C=C\CCCCCCCC [100% Phosphatidylcholine (PC), 1,2-dioleoyl-sn-glycero-3-phosphocholine, reference compound]
5. CCCCCCCCCCCCCCCCCCCCCCCCCC(=O)N[C@@H](CO[C@H]1O[C@H](CO)[C@H](O)[C@H](O)[C@H]1O)[C@H](O)[C@H](O)CCCCCCCCCCCCCC [α-galactosylceramide (KRN7000), α-galactosylceramide]

["1.36 FOB", "1.57 FOB", "1.25 FOB", "0.86 FOB", "0.85 FOB"]
